Parameter inhibition: see the listing below.
Molecular target: Solute carrier family 2, facilitated glucose transporter member 1 (Homo sapiens) (UniProt P11166)
Sequence (P11166 whole entry): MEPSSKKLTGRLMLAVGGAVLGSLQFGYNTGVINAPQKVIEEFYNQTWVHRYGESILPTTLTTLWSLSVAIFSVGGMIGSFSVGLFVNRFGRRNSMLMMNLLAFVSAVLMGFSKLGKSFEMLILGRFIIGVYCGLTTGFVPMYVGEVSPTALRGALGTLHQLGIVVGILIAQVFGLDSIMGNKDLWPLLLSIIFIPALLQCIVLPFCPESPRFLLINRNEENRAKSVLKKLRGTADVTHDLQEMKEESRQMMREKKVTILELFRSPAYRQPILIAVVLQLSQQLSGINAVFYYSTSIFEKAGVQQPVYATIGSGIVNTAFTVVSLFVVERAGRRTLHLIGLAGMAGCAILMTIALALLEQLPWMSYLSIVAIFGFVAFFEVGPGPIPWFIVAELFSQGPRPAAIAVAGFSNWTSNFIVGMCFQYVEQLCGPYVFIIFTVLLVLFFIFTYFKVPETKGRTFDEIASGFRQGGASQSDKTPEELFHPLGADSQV
Assay: ST_JUDE_LEISH: Cytotoxicity at 2uM final concentration against transgenic Leishmania Mexicana promastigotes LmGLUT1 that are glucose transport deficient and complemented with the human glucose transporter GLUT1. Activity is measured by DNA content using SYBR green in vitro
Assay type: functional
attribute.measured: inhibition (%)

In [3]: df
Out[3]:
                              smiles_string  experimental_result
0  Cc1cccc2nc(-c3ccc(-c4cccc(CNCc5cccc(N)c5)c4)cc3)[nH]c12                 2.44
1  CCc1ccc(NC(=O)c2cccc(CN3CCCN(Cc4ccc(OC)cc4)CC3)c2)cc1                 1.52
2  COc1cc(OC)c2c(c1Cl)O[C@]1(C2=O)C(=O)C(Cc2ccccc2)(Cc2ccccc2)C(=O)C[C@H]1C                 2.41
3  Oc1ccc2[nH]c(-c3cccs3)nc2c1CN1CCC(O)(c2ccccc2)CC1                 10.6
4   Cc1nc2ccc(-c3nc4cc(N)ccc4[nH]3)cc2[nH]1                -2.46
5  Cc1cccc2nc(-c3ccc(-c4cccc(NC(=O)CN5CCN(C)CC5)c4)s3)[nH]c12                -0.82
6                    NS(=O)(=O)c1cccc(Br)c1                 2.38

###

Target: Hexose transporter 1 (Plasmodium falciparum) (UniProt O97467)
Experiment: ST_JUDE_LEISH: Cytotoxicity at 2uM final concentration against transgenic Leishmania Mexicana promastigotes LmPfHT that are glucose transport deficient and complemented with the Plasmodium falciparum hexose transporter. Activity is measured by DNA content using SYBR green in vitro
Type: functional
attribute.measured: inhibition (%)

                              smiles_string  experimental_result
0  Cc1cc(N[C@@H](Cc2ccccc2)C(=O)NCCc2ccccc2)nc(NCC2CCCCC2)n1                 3.86
1  CN1CCN(CCCN(Cc2csc(-c3ccc(CNCc4ccccc4)cc3)n2)C(=O)Nc2ccc3ccccc3c2)CC1                 4.46
2  COc1ccc(Cn2c(Nc3cccc(C(F)(F)F)c3)nc3cc(C(=O)NC(C)C)cnc32)cc1Cl                 9.69
3  Nc1cc(-c2cccc(Cl)c2)nn1-c1ccnc2cc(Cl)ccc12                -0.13

###

Quick reference: inhibition of the listed items.
Molecular target: Glucose transporter (Leishmania mexicana) (UniProt O61059)
Test: ST_JUDE_LEISH: Cytotoxicity at 2uM final concentration against transgenic Leishmania Mexicana promastigotes LmGT2 that are glucose transport deficient and complemented with the L. Mexicana glucose transporter 2. Activity is measured by DNA content using SYBR green in vitro
Type: functional
attribute.measured: inhibition (%)

>>> df
                                    molecule  attribute_measured  experimental_result
 0  CN(C)CCN1CCN(CCCN2c3ccccc3Sc3ccc(C(F)(F)F)cc32)CC1          inhibition                 3.66
 1     COc1ccc2c(=NN=Cc3cccnc3)cc(C)[nH]c2c1          inhibition                 1.52
 2  O=c1cc(NCCCNCc2ccc(Cl)c(Cl)c2)[nH]c2ccc(Cl)cc12          inhibition                -9.23
 3  COc1ccc2nccc([C@@H](O)CN3CCC(NCCc4c[nH]c5ccccc45)CC3)c2c1          inhibition                  7.8
 4  Cc1cccc(CC2CC(=O)N(c3ccc([N+](=O)[O-])cc3)C2=O)c1 (configuration not stated)          inhibition                 7.64
 5  CC(C)CN1CCCN(Cc2cccc(NC(=O)c3cc4ccccc4s3)c2)CC1          inhibition                -5.16
 6  O=C(Nc1ccccc1)Nc1cccc(-c2cccc(-c3nc4cc(F)ccc4[nH]3)c2)c1          inhibition                 1.59
 7  CN1CCN(c2cc(NC(=O)c3ccc(-c4ccc(Cl)cc4)cc3)ccc2Cl)CC1          inhibition                -1.86
 8  COc1cc2nc(C)nc(Nc3ccc(Oc4ccccc4)cc3)c2cc1OC          inhibition                -1.95
 9  COc1ccc(Br)cc1/C=C/C(=O)Nc1cccc(C2CCCN(C)C2)c1 (configuration not stated)          inhibition                 7.45
10  Nc1ncnc2nc(-c3ccc(F)cc3)cc(-c3ccc(NC(=O)c4ccccc4)cc3)c12          inhibition                 2.02
11  CCN(CC)CCCN(C(=O)Nc1cc(F)cc(F)c1)c1nc(-c2ccc(F)cc2)cs1          inhibition                 1.69
12  C=CCc1cc(C2CCN(CCCCNC(=O)c3ccc(-c4ccc(C#N)cc4)cc3)CC2)c(OCC(N)=O)c2c1CCCC2          inhibition                 3.22
13  CCc1ccc(C(=O)Nc2cccc(CN3CCCN(Cc4ccc(O)cc4)CC3)c2)cc1          inhibition                 3.01
14  Cc1ccc2c(c1)c(-c1ccccc1)c(-c1ccccc1)n2CC(O)CN1CCN(CC=Cc2ccccc2)CC1 (configuration not stated)          inhibition                  0.7
15  N=C(N)c1ccc(Nc2nccc(Nc3nc(-c4ccccc4)cs3)n2)cc1          inhibition                 -0.9
16  COc1ccccc1N1CCN(CCCCN(C(=O)Nc2cccc(Cl)c2)C(=O)Nc2cccc(Cl)c2)CC1          inhibition                 10.6
17  N#Cc1ccc(CN2CCCN(Cc3cccc(NC(=O)c4ccc(Cl)c(Cl)c4)c3)CC2)cc1          inhibition                 9.89
18  Cn1cccc1C(=O)NCC(CCNc1cc(=O)c2ccccc2[nH]1)NCc1cc(Br)cc(Br)c1 (configuration not stated)          inhibition                 1.58
19  Cc1cc(C2CCN(CCCCNC(=O)c3ccc(NC(=O)c4ccc(Cl)cc4)cc3)CC2)c(C)cc1OCc1cccnc1          inhibition                -0.82
20  O=S(=O)(NCCN1CCCC1)c1ccc(-c2ccc(CNCc3ccccc3)cc2)cc1F          inhibition                 0.32
21  COc1cc(C(C)C)ccc1N1CCN(CCCCNC(=O)c2ccc(NC(=O)c3ccc(Cl)cc3)cc2)CC1          inhibition                 2.26
22  O=C1C(c2ccccc2)=C(Nc2ccc(Cl)cc2)c2ccccc21          inhibition                 2.61
23  Cc1ccc2[nH]c(-c3ccccc3Nc3ccnc4cc(-c5nccs5)ccc34)nc2c1          inhibition                 1.35
24  CCCC(=O)Nc1ccc(OCCCN(Cc2cccc(C(F)(F)F)c2)c2ccc(C#N)c(C(F)(F)F)c2)cc1          inhibition                 1.64
25  CCCCNCC(O)COc1ccccc1-c1ccc(N/N=C/c2cccc3ccccc23)nn1 (configuration not stated)          inhibition                 1.78
26  COc1cc(Cc2cnc(N)nc2N)cc(OCCCS(=O)(=O)O)c1OC          inhibition                 3.36
